Test system: B7-H4-SV (splice variant)
ASSAY NOTES: ForteBio Octet affinity
EXPERIMENTAL PARAMETERS: hIgG1-TM (n = 4-7)
ASSAY METRIC: kon

*Q* Supply recorded kon for ZY0EQD-E02: anti-B7-H4 antibody clone, VH SEQ ID NO: 33, VL SEQ ID NO: 34 (antibody, V domains shown) VH: QVQLQQWGAGLLKPSETLSLTCAVYGGSFSGYYWNWIRQPPGKGLEWIGEINHSGSTSYNPSLKSRVTISVDTSKNQFSLKLSSVTAADTAVYYCARVLYNWNVDSWGQGTLVTVSS VL: DIQMTQSPSSLSASVGDRVTITCRASQDIRNDVGWYQQKPGKAPKRLIYAASRLQSGVPSRFSGSGSGTEFTLTISSLQPEDFATYYCLQHNSYPRTFGQGTKVEIK here.
*A* 3360 M⁻¹ s⁻¹
